Entries annotated with measured polymerase ribozyme fitness (log ratio)
B1: TPR t1 (parent)
chain: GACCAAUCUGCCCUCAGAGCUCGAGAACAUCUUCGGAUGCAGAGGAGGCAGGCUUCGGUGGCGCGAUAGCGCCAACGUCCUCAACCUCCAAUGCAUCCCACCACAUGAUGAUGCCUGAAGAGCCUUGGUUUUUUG

Variants of: B1
ASSAY DETAILS: polymerase ribozyme fitness, log enrichment relative to wild type (log ratio); higher = more active; in vitro selection for triplet polymerase activity
Give the figure only, with no unit attached.

// sample A26U G69U C79G , its polymerase ribozyme fitness (log ratio) was -3.29

Lab book: polymerase ribozyme fitness (log ratio) of G42A C73U noted as -1.61

C40U C64U A90C has a reported polymerase ribozyme fitness (log ratio) of -1.97
